Each item that follows carries a reported log10 IC50.
molecular target: uterine OT receptors (Rattus norvegicus, UniProt P70536); construct: from tissue; host or cells: uterus of DES-treated rats, crude membranes; test: [^3 H]OT binding to uterine OT receptors, crude membrane preparation of uteri from DES-treated rats; settings: rat uterus membranes, 1 nM [^3 H]OT; read-out: Receptor Binding Results IC50 (nM) [^3 H]OT
Sequence (P70536 whole entry): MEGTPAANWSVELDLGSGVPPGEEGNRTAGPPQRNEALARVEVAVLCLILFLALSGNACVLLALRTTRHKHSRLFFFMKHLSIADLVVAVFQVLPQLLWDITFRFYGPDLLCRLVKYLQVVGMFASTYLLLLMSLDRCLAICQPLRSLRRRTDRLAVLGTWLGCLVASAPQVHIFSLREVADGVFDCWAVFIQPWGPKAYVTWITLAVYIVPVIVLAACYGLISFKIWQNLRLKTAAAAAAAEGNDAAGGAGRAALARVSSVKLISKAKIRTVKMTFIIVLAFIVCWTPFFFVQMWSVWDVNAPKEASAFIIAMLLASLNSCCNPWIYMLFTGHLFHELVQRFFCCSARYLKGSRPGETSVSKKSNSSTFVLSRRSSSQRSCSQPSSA
Square brackets hold non-standard residues; d marks the D form. Peptide text beside a SMILES is read from it. * marks the point of attachment. dPiz(1,6-dehydro) = O=C(O)[C@H]1CCC=NN1; dNMeF = CN[C@H](Cc1ccccc1)C(=O)O; Pip = O=C(O)[C@@H]1CCCCN1; dPip = O=C(O)[C@H]1CCCCN1; Orn = NCCC[C@H](N)C(=O)O; Boc = CC(C)(C)OC(=O)*
Observable: log10 IC50 (log10 of the value in nM)

>  <Molecule>
CC[C@H](C)[C@@H]1NC(=O)[C@@H](Cc2ccccc2)NC(=O)[C@@H]2CCCN2C(=O)[C@@H](Cc2ccccc2)N(C)C(=O)[C@H](CCCNC(=O)OC(C)(C)C)NC(=O)[C@H]2CCC=NN2C1=O [Example 124] (cyclo(I[dPiz(1,6-dehydro)][Orn](Boc)[dNMeF]P[dF]))

>  <System tested>
uterine OT receptors (Rattus norvegicus, UniProt P70536)

>  <log10 IC50>
1.24

$$$$
>  <Molecule>
CC[C@H](C)[C@@H]1NC(=O)[C@@H](Cc2c[nH]c3ccccc23)NC(=O)[C@@H]2CCCN2C(=O)[C@@H](Cc2ccccc2)N(C)C(=O)[C@H](CCCCN)NC(=O)[C@H]2CCCCN2C1=O [Example 132] (cyclo(I[dPip]K[dNMeF]P[dW]))

>  <System tested>
uterine OT receptors (Rattus norvegicus, UniProt P70536)

>  <log10 IC50>
1.81

$$$$
>  <Molecule>
CC[C@H](C)[C@@H]1NC(=O)[C@@H](Cc2ccccc2)NC(=O)[C@@H]2CCCN2C(=O)[C@@H](Cc2ccccc2)N(C)C(=O)[C@H](CCCCN)NC(=O)[C@H]2CCC=NN2C1=O [Example 174] (cyclo(I[dPiz(1,6-dehydro)]K[dNMeF]P[dF]))

>  <System tested>
uterine OT receptors (Rattus norvegicus, UniProt P70536)

>  <log10 IC50>
1.32

$$$$
>  <Molecule>
CCOc1ccc(C[C@H]2NC(=O)[C@@H]3CCCN3C(=O)[C@@H](Cc3ccccc3)N(C)C(=O)[C@@H]3CCCCN3C(=O)[C@H]3CCCCN3C(=O)[C@H]([C@@H](C)CC)NC2=O)cc1 [Example 122] (cyclo(I[dPip][Pip][dNMeF]P[dY](Et)))

>  <System tested>
uterine OT receptors (Rattus norvegicus, UniProt P70536)

>  <log10 IC50>
2.11

$$$$
>  <Molecule>
CC[C@H](C)[C@@H]1NC(=O)[C@@H](Cc2ccccc2)NC(=O)[C@@H]2CCCN2C(=O)C(Cc2cccnc2)NC(=O)[C@@H]2CCCCN2C(=O)[C@H]2CCCCN2C1=O (single isomer, unassigned) [Example 10 (isomer 1)]

>  <System tested>
uterine OT receptors (Rattus norvegicus, UniProt P70536)

>  <log10 IC50>
3.00

$$$$

---

target: AVP-V1 sites (Rattus norvegicus); construct: crude membrane preparation of male rat liver (AVP-V1 sites); from tissue; host or cells: male rat liver, crude membranes; assay: [^3 H]AVP binding to crude membrane preparation of male rat liver (AVP-V1 sites); conditions: Receptor Binding Results IC50 (nM) [^3 H]-AVP-V1
Sequence (P30560 whole entry): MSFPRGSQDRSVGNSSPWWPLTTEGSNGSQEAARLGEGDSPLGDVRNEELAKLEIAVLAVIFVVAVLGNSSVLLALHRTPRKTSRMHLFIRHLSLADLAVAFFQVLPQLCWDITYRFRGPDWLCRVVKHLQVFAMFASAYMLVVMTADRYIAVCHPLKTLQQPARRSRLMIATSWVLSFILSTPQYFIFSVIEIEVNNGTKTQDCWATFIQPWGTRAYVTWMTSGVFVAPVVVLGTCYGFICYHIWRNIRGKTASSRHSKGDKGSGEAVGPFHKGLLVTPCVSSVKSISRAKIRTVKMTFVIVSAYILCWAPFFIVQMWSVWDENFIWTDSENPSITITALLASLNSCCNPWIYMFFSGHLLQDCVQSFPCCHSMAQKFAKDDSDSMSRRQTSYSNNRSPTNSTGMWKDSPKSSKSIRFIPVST
Numbered stars: 1 amine (or outer) side, 2 acyl side, 3 side chain; on linkers, the order of the positions; unused ones are H or OH. Square brackets hold non-standard residues; d marks the D form. Peptide text beside a SMILES is read from it. * marks the point of attachment. X2 = O=C(OCc1ccccc1)N1CCN([*:1])[C@H](C(=O)[*:2])C1; d2Nal = N[C@H](Cc1ccc2ccccc2c1)C(=O)O; dNMeY = CN[C@H](Cc1ccc(O)cc1)C(=O)O; dNMeF = CN[C@H](Cc1ccccc1)C(=O)O; Pip = O=C(O)[C@@H]1CCCCN1; dPip = O=C(O)[C@H]1CCCCN1; dNMeA = CN[C@H](C)C(=O)O; Bn = c1ccc(C*)cc1
Each item that follows carries a reported IC50.
Observable: IC50

>  <Molecule>
CCOc1ccc(C[C@H]2NC(=O)[C@@H]3CCCN3C(=O)[C@@H](Cc3ccccc3)NC(=O)[C@H](CC(N)=O)NC(=O)[C@@H]([C@H](C)O)NC(=O)[C@H]([C@@H](C)CC)NC2=O)cc1 [Example 99] (cyclo([dY](Et)I[dT]N[dF]P))

>  <Test value>
> 10000 nM

$$$$
>  <Molecule>
CC[C@H](C)[C@@H]1NC(=O)[C@@H](Cc2ccccc2)NC(=O)[C@@H]2CCCN2C(=O)[C@@H](C)N(C)C(=O)[C@@H]2CCCCN2C(=O)[C@H]2CCCCN2C1=O [Example 5] (cyclo(I[dPip][Pip][dNMeA]P[dF]))

>  <Test value>
> 10000 nM

$$$$
>  <Molecule>
CC[C@H](C)[C@@H]1NC(=O)[C@@H](Cc2ccccc2)NC(=O)[C@@H]2CCCN2C(=O)[C@@H](Cc2ccc(OCc3ccccc3)cc2)N(C)C(=O)[C@@H]2CCCCN2C(=O)[C@H]2CCCCN2C1=O [Example 28] (cyclo(I[dPip][Pip][dNMeY](Bn)P[dF]))

>  <Test value>
> 10000 nM

$$$$
>  <Molecule>
CC[C@H](C)[C@@H]1NC(=O)[C@@H](Cc2ccc3ccccc3c2)NC(=O)[C@@H]2CCCN2C(=O)[C@@H](Cc2ccccc2)N(C)C(=O)[C@@H]2CN(C(=O)OCc3ccccc3)CCN2C(=O)[C@H]2CCCCN2C1=O [Example 169] (cyclo(I[dPip][X2][dNMeF]P[d2Nal]))

>  <Test value>
> 10000 nM

$$$$
>  <Molecule>
CC[C@H](C)[C@@H]1NC(=O)[C@@H](Cc2ccccc2)NC(=O)[C@@H]2CCCN2C(=O)[C@@H](Cc2ccc(O)cc2)N(C)C(=O)[C@@H]2CCCCN2C(=O)[C@H]2CCCCN2C1=O [Example 46] (cyclo(I[dPip][Pip][dNMeY]P[dF]))

>  <Test value>
10000 nM

$$$$
>  <Molecule>
CC[C@H](C)[C@@H]1NC(=O)[C@@H](Cc2ccccc2)NC(=O)[C@@H]2CCCN2C(=O)[C@@H](Cc2ccccc2)N(C)C(=O)[C@H](Cc2cnc[nH]2)NC(=O)[C@H]2CCCCN2C1=O [Example 13] (cyclo(H[dNMeF]P[dF]I[dPip]))

>  <Test value>
> 1000 nM

$$$$
>  <Molecule>
CC[C@H](C)[C@@H]1NC(=O)[C@@H](Cc2ccccc2)NC(=O)[C@@H]2CCCN2C(=O)[C@@H](Cc2ccccc2)N(C)C(=O)[C@@H]2CCCN2C(=O)[C@H]2CCCCN2C1=O [Example 7] (cyclo(I[dPip]P[dNMeF]P[dF]))

>  <Test value>
> 10000 nM

$$$$
>  <Molecule>
CC[C@H](C)[C@@H]1NC(=O)[C@@H](C)NC(=O)[C@@H]2CCCN2C(=O)[C@@H](Cc2ccccc2)NC(=O)[C@@H]2CCCCN2C(=O)[C@H]2CCCCN2C1=O [Example 2] (cyclo(I[dPip][Pip][dF]P[dA]))

>  <Test value>
> 10000 nM

$$$$

---

Biological target: uterine OT receptors (Rattus norvegicus, UniProt P70536)
Construct: from tissue; host or cells: uterus of DES-treated rats, crude membranes
Test: [^3 H]OT binding to uterine OT receptors, crude membrane preparation of uteri from DES-treated rats
Conditions: Receptor Binding Results IC50 (nM) [^3 H]OT
Method: Competition studies were conducted at equilibrium (60 minutes; 22° C.) using 1 nM [^3 H]OT in the following assay buffer: 50 mM Tris-HCl, 5 mM MgCl2, and 0.1% BSA, pH 7.4.
Square brackets hold non-standard residues; d marks the D form. Peptide text beside a SMILES is read from it. Pip(4-aza) = O=C(O)[C@@H]1CNCCN1; dNMeF = CN[C@H](Cc1ccccc1)C(=O)O; Pip = O=C(O)[C@@H]1CCCCN1; dPip = O=C(O)[C@H]1CCCCN1; dNMeA = CN[C@H](C)C(=O)O

>  <Compound>
CC[C@H](C)[C@@H]1NC(=O)[C@@H](Cc2ccccc2)NC(=O)[C@@H]2CCCCN2C(=O)[C@@H](Cc2ccccc2)N(C)C(=O)[C@@H]2CCCCN2C(=O)[C@H]2CCCCN2C1=O [Example 108] (cyclo(I[dPip][Pip][dNMeF][Pip][dF]))

>  <IC50 / nM>
655

$$$$
>  <Compound>
CC[C@H](C)[C@@H]1NC(=O)[C@@H](Cc2ccccc2)NC(=O)[C@@H]2CCCN2C(=O)[C@@H](C)N(C)C(=O)[C@@H]2CCCCN2C(=O)[C@H]2CCCCN2C1=O [Example 5] (cyclo(I[dPip][Pip][dNMeA]P[dF]))

>  <IC50 / nM>
930

$$$$
>  <Compound>
CC[C@H](C)[C@@H]1NC(=O)[C@@H](Cc2ccccc2)NC(=O)[C@@H]2CCCN2C(=O)[C@@H](Cc2ccccc2)N(C)C(=O)[C@@H]2CCCN2C(=O)[C@H]2CCCCN2C1=O [Example 7] (cyclo(I[dPip]P[dNMeF]P[dF]))

>  <IC50 / nM>
350

$$$$
>  <Compound>
CC[C@H](C)[C@@H]1NC(=O)[C@@H](Cc2c[nH]c3ccccc23)NC(=O)[C@@H]2CCCN2C(=O)[C@@H](Cc2ccccc2)N(C)C(=O)[C@@H]2CNCCN2C(=O)[C@H]2CCCCN2C1=O [Example 92] (cyclo(I[dPip][Pip(4-aza)][dNMeF]P[dW]))

>  <IC50 / nM>
7.7

$$$$

The reported numbers originate from patent US5225528A.
